target: purified human COMT enzyme of the Val158 variant (membrane-bound MB-COMT) (Homo sapiens (Human), UniProt P21964); assay: Esculetin or Fluorescence Polarization assay (MB-COMT); format: biochemical; settings: Esculetin or Fluorescence Polarization assay; Val158 variant
attributeMeasured: IC50 (nM)

A. Cn1c(-c2ccc(Cl)c(C(F)(F)F)c2)ncc(O)c1=O [Example 1]
B. O=c1[nH]c(-c2cccc(C#Cc3ccccc3)c2)ncc1O [Example 8]
Endpoint returns the identifier whose IC50 is numerically larger, either A or B . Refer to your chosen entry by its label in the reply.
B
(B: 590 nM, A: 180 nM)

* * *

target: purified human COMT enzyme of the Val158 variant (membrane-bound MB-COMT) (Homo sapiens (Human), UniProt P21964); experiment: Esculetin or Fluorescence Polarization assay (MB-COMT); assay type: biochemical
attributeMeasured: IC50 (nM)

a. COc1ccc(Oc2cccc(-c3ncc(O)c(=O)n3C)c2)cc1 [Example 5]
b. O=c1[nH]c(-c2ccc(C(F)(F)F)cc2)ncc1O [Example 6]
In terms of reported IC50, does a or b have the smaller number? Refer to your chosen entry by its label in the reply.
a
